# System: RARa:RXR (NR concentration 270 nM, RXRa partner concentration 90 nM)
# experiment notes: PBM binding z-score (relative to random genomic background probes); higher = stronger binding; sequences stand for … in GC…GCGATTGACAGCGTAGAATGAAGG
Assign Fulfilled whenever PBM binding z-score does not fall below 0.9; assign Not fulfilled whenever it does.

Known results for sequences:
TCATATAGGTAAAAGTTGAAAGTCGGTGTGGTAA ... Fulfilled
TCATATCGGTAAACAGGTGAAAGTCCGTAAGTTA ... Fulfilled
TCTGCTAGGCCAACGATGGTCAGCTAATCTGCTA ... Not fulfilled

Then this sequence:
Task item: Quick check, PBM binding z-score >= 0.9? "ATCTCTAGGTAACCAAGATCAGTGAATGCCGAAC"
Reply: Not fulfilled

---

# Test system: PPARg:RXRa 30nM:10nM, anti-RXR (NR concentration 30 nM, RXRa partner concentration 10 nM)
# experiment notes: PBM binding z-score (relative to random genomic background probes); higher = stronger binding; sequences stand for … in GC…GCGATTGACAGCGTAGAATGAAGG
measured attribute: PBM binding z-score

List the reported PBM binding z-score of each sequence below.
1. CCTGCTAGGTCATGGTCAGCCAATCTACAGTATG
2. CTCGAAAGGTCGGTTGAGGTGAGGATACGGATAA
3. GGAACGAGGGCATTGGAGTTGATAGCATGGCGAT
4. CCAGTCAGGTGAGAAGGTAACTCAGCCTCGATTA
5. TCTAATTGGTCAAAGGTCACACACTCGAAATGCG
6. TCAGACAGGTGAAGGTAACTCAGGTACGCAGTCG

Reply:
0.768
0.294
-0.313
-0.0852
10.1
3.89

Each sequence below has a reported value. Please supply its PBM binding z-score.
1. CCTTACGGGTCACTGACAGGTGATAGCATTTGGA
2. GCGACTGGGGCATCAACAGGTTACCATAACTTAA
3. ATCGAAAGGTCGACGAGGTGAATATACACCGTTT

Reply:
1.83
-0.0267
1.4

Dear colleague, could you please provide PBM binding z-score for the sequences listed below?
1. TCTTGTAGATCAGCAGCTTAAGAAAGCTGGCCAA
2. ATATGTATGTTAGCTGGGGTCATTCAGACTAGGC
3. CGTCAAAGTTCAACTAAGGTAACGTACAGCACGC
4. CCTGCTAGGTCATGGTCACCTAATCTACAGTATG

Reply:
2.45
1.26
2.85
1.07

---

So I've got a bunch of sequences here, and I need their PBM binding z-score values.
# Tested on: PPARg:RXRa IVT, anti-PPARg (NR concentration 270 nM, RXRa partner concentration 90 nM)
# experiment notes: PBM binding z-score (relative to random genomic background probes); higher = stronger binding; sequences stand for … in GC…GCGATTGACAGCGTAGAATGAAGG
Numbers only.

A selection of reference data follows.
ACTAGCAGGCCATGTTTGGGTCACTCAAACAAAG ... 1.13
ACATGTAGGTTAAGGGTCATTCAGGTTGGTTCGC ... 7.34
CCGAGTAGGTTATGGGGAATTCAGGCAACGGTGA ... 2.6
TCTTGTAGATCAAAGGTTAAAAAAGCCGAAGCCT ... 3.58
CCTTACGGGTCACGATGTTATAGCACGACGAGCG ... 4.86

Need PBM binding z-score for each of these sequences.
1. AGATTGAGGTTATTAAGATCAGGGAATTGCGGTC
2. GATACAGGGTCAAGGCCAGAGTGCGCGTATTGAT

Reply:
[2.34, 4.1]

---

# Tested on: RARb homodimer (NR concentration 270 nM)
# experiment notes: PBM binding z-score (relative to random genomic background probes); higher = stronger binding; sequences stand for … in GC…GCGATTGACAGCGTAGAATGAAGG
measured attribute: PBM binding z-score

Go through the items and report each one's PBM binding z-score.
1. TAGCCTAGGTCATCCAGGGGCCAGTATAGAAAGC
2. ATCTCTAGGGAACAAGTTCAGTGAAAGAGAGGAC
3. GCTCTGAGGACAAGGTCAGAGCTTTGTCCGTAGA
4. AGAACGAGGGCACGCTGAGTTGATAGCGGAGTAG
5. ACTAGTTGGTCAGCAGAGGTCACACACAATTCGG

Reply:
1. 3.71
2. 1.49
3. 2.95
4. 1.17
5. 5.13

---

# Tested on: PPARg:RXRa IVT, anti-PPARg (NR concentration 270 nM, RXRa partner concentration 90 nM)
# experiment notes: PBM binding z-score (relative to random genomic background probes); higher = stronger binding; sequences stand for … in GC…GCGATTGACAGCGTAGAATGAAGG
For each of the sequences below, state its PBM binding z-score.
Numbers only.

CGTCCAAGGTCAAAGGTCTGTGAAGAGATGACGG ... 4.39
TCATATAGGTAACTGCTAGGTGAAAGTCCGATCT ... 3.78
ATCGAATGGTCGACGAGGTGAGTATACACCGTTT ... 0.567
ACTATTAGTTGACTTAGGGCCACCGATACGACGC ... 0.728
CGTCCAAGGTCAGTGCTAGGTCAGTGAAAGCATT ... 2.77
CTTTACGGGTCACTCCAGGTTATAGCATCGGAGT ... 4.57
ACTTACGGGTCAACGAGGATATAGCACGCGTATA ... 3.76
CCGACTGGGTCAAGGTTACCATAACGCACAGCCA ... 5.93

Hello, I would appreciate it if you could give PBM binding z-score for each entry below.
1. GTACCAAGGTGAATAGGTCGTTCATGAGTAGGCG
2. TCAGACAGGTTAAGGTAACTCAGGTACGCAGTCG
3. CCTACTGGGCCATCAGTTCATTGATATCAACGTT
4. CATACAGGGTCAGCTGGGCCAGAGTAGGGACGGC

Reply:
2.71
0.69
3.98
2.66

---

# Test system: FXR:RXRa (NR concentration 270 nM, RXRa partner concentration 90 nM)
# experiment notes: PBM binding z-score (relative to random genomic background probes); higher = stronger binding; sequences stand for … in GC…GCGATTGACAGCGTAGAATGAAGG
Give PBM binding z-score for every item shown.
One number for each entry.

TGCATGAGGTTAAAGATCAGGGAACGTGGCGTCG ... 3.2
AATACAGGGTCTCTAGGCCAGAGTAGGTACGAAT ... -0.207
ATATATAGGTTACATCCGGGTCATTCAGGCTATG ... 3.03
GCGACTGGGGCATCAGCAGGTAACCATAACTTAA ... -0.303
TCTCGGACGACACGAAAGGTCAGAGCTCGACATC ... 2.91

Take each entry in turn and give its PBM binding z-score.
1. CCTATTAGTTGACCATGAGGGCAACCGAAGCTCG
2. CCAACTGGGGCAAAGGTTACCATACTCAGTACGA
3. CCCGACAGGTGAAAGGTAACTCAGTCTGGTACGC

Reply:
[1.01, 1.45, 0.639]

---

# Test system: LXRa homodimer (NR concentration 270 nM)
# experiment notes: PBM binding z-score (relative to random genomic background probes); higher = stronger binding; sequences stand for … in GC…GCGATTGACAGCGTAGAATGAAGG
measured attribute: PBM binding z-score
One number for each entry.

// input: 3 sequences below; output: PBM binding z-score for each
1. ATCTCTAGGTAAAAGTTGAGTGAATCCCGAGGAT
2. CCTACTGGGCAATCAGGTCATTGATATCAACGTT
3. CCAAACAGGTGAGAAGGTAACTCAGCCTCGATTA

Reply:
[0.126, 0.766, -0.189]

---

# System: RXRa DBDmut IVT, anti-RXR (DBD mutation: RXRa K156A/R161A, NR concentration 90 nM)
# experiment notes: PBM binding z-score (relative to random genomic background probes); higher = stronger binding; sequences stand for … in GC…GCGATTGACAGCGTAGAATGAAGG
Could you label it class 1 if measured PBM binding z-score is 1 or higher, and class 0 otherwise?

Sample answers from the record:
TCTAGCAGGCCAGAGGGTCACGCAAGAGGTACGG ... class 0
CAAACTAGGTCAAGGTTAAAGTCGGTTTGTGCCA ... class 1
ATATGGAGGTTACATCCGGGTCATTCAGGCTATG ... class 1
ACAGACAGGTAATGAAGGTAACTCAGGCTATCAT ... class 0
TGAATGAGGTTAAAGATCAGGGTACGTGGCGTCG ... class 1
CCTTACGGGTCACTGAAAGGTTATAGCATTTGGA ... class 1
ACTCGGAGGACAAAGTTCAGAGCTACGCCAGTGA ... class 1
CCTAGCAGGCCATGGTCACTCAAGCATTTCGCTT ... class 0
ACAGATAGGTGATGAAGGTAACTCAGGCTATCAT ... class 0
TGAATGAGGTTAAGGATCAGGGAACGTGGCGTCG ... class 0

Task item: Exam item: decide whether the reported PBM binding z-score for "GCTATTAGTTGAATGGGCAACCGAATGATTCTCG" is at least 1.
Reply: class 0

Task item: Item "TCTGCTAGGTCAACGATCGTCAGCTAATCTGCTA" with PBM binding z-score of 1 or above?
Reply: class 0

Task item: Determine whether measured PBM binding z-score meets or exceeds 1 for "GTTATTAGTTGAAAGGGCAACCGAATGATTCTCG"
Reply: class 1

Task item: Hello, I need to know if "TCGAGTATGTTAGGGGCATTCAGAATGGCGTCGA" has measured PBM binding z-score not below 1. Thanks!
Reply: class 1
